Cited source for all entries: PubChem BioAssay

SYSTEM NAME: L-lactate dehydrogenase (Plasmodium falciparum (isolate CDC / Honduras)) (UniProt Q27743)
Sequence (Q27743 whole entry, looked up): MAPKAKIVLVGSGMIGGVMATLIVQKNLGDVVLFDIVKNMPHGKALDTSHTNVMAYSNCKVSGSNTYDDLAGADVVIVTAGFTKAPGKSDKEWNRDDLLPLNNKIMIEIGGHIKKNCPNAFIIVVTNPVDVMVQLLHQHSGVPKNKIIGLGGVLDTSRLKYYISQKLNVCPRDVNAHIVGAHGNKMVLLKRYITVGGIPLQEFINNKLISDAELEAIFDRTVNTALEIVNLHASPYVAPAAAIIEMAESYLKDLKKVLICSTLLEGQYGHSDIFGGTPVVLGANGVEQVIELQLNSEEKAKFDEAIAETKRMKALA
ASSAY NOTES: PfLDH activity inhibition – cell lysate, 3D7 strain, counter-screen for P. falciparum growth inhibition project (AID 2304);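 note: 0% = vehicle and 100% = reference inhibitor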
CONDITIONS USED: P. falciparum 3D7 crude extract, LDH APAD/NBT absorbance; at 2 µM; stronger effect = higher value
# inhibition listing for each entry below
Expressed in %, but write only the number.

Study these solved cases before continuing.
[
  {
    "COMPOUND": "Fc1ccc(N(c2nc(-c3cc(F)cc(C(F)(F)F)c3)cs2)C2CCNCC2)cc1",
    "inhibition (%)": -3
  },
  {
    "COMPOUND": "CC(C)CNCc1cccc(-c2cccc(CN(C(=O)c3cccs3)C3CCN(Cc4ccccc4)CC3)c2)c1",
    "inhibition (%)": -4
  }
]

Exercise: Bench note: what inhibition did Cc1ccc(C2(O)C[C@H]3CC[C@@H](C2)N3C)cc1 (stereo not given in full) show?
Key: -4

Exercise: Bench note: what inhibition did `COCCNCc1cccc(-c2ccccc2CN(C(=O)Nc2ccccc2)C2CCN(Cc3ccccc3)CC2)c1` show?
Key: 1

Exercise: Bench note: what inhibition did C=CCOc1ccccc1CNCC(O)c1cccc(C(F)(F)F)c1 (stereo not given) show?
Key: -1

Exercise: Bench note: what inhibition did COC(=O)c1ccc(CC(C)NCC(O)c2cc(Cl)c(N)c(Cl)c2)cc1 (stereo not given) show?
Key: -7

* * *

ASSAY NOTES: viability rescue of complex I mutant cybrids, primary screen, cell-based, galactose medium, ATP luminescence (AID 1645843);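 note: positive z means more ATP and so rescue of galactose-driven cybrid death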
CONDITIONS USED: complex I mutant cybrid cells, 72 h, stronger effect = higher value
ENDPOINT: z-score
The answer should be a number; do not append a unit.

Study these solved cases before continuing.
[
  {
    "COMPOUND": "COc1ccc2c(c1OC)C(=O)O[C@H]2[C@@H]1c2cc3c(cc2CCN1C)OCO3",
    "RESULT": 0.055
  },
  {
    "COMPOUND": "N[C@@H](Cn1oc(=O)[nH]c1=O)C(=O)O",
    "RESULT": -0.215
  }
]

Below: the item to evaluate.
Exercise: Bench note: what z-score did C[N+]1(C)C2CCC1CC(OC(=O)c1c[nH]c3ccccc13)C2 (configuration not stated) show?
Key: 0.4

* * *

SYSTEM NAME: L-lactate dehydrogenase (Plasmodium falciparum (isolate CDC / Honduras))
ASSAY NOTES: PfLDH activity inhibition – cell lysate, 3D7 strain, counter-screen for P. falciparum growth inhibition project (AID 2304);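 note: 0% = vehicle and 100% = reference inhibitor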
CONDITIONS USED: P. falciparum 3D7 crude extract, LDH APAD/NBT absorbance; at 2 µM; stronger effect = higher value
# inhibition listing for each entry below
Expressed in %, but write only the number.

[
  {
    "COMPOUND": "Cc1[nH]c2ccccc2c1C1CCN(CC2CCC(NC(=O)/C=C/c3ccc(Cl)c(Cl)c3)CC2)CC1 (stereo not given)",
    "RESULT": 1
  }
]

Exercise: API: value(readout= inhibition, system= L-lactate dehydrogenase (Plasmodium falciparum (isolate CDC / Honduras)), query= `O=C(c1cc(C(=O)NCc2ccc(Cl)cc2)c(=O)n(Cc2ccc(Cl)cc2)c1)c1cc(F)ccc1O` )
Key: -2

Exercise: API: value(readout= inhibition, system= L-lactate dehydrogenase (Plasmodium falciparum (isolate CDC / Honduras)), query= Cc1c(C(=O)NC2CCC(CN3CCC(c4c[nH]c5ccccc45)CC3)CC2)cnn1-c1c(Cl)cc(Cl)cc1Cl (stereo not given) )
Key: 4

Exercise: API: value(readout= inhibition, system= L-lactate dehydrogenase (Plasmodium falciparum (isolate CDC / Honduras)), query= CC(Cc1ccc(OCCOc2ccccc2)cc1)NCC(O)c1cccc(Cl)c1 (stereo not given) )
Key: 1

Exercise: API: value(readout= inhibition, system= L-lactate dehydrogenase (Plasmodium falciparum (isolate CDC / Honduras)), query= COc1ccc(OC)c(C=CC(=O)NC2CCC(CN3CCC(c4c[nH]c5ccccc45)CC3)CC2)c1 (stereo not given) )
Key: -4
